Listed here are compounds together with their documented EC50.
- System Name: Human STING (Homo sapiens, UniProt Q86WV6, G230A/H232R/R293Q/R71H)
- Construct: using human THP1-Blue™ ISG SEAP based reporter cell line (Invivogen)
- Sequence (Q86WV6 whole entry R71H/G230A/H232R/R293Q): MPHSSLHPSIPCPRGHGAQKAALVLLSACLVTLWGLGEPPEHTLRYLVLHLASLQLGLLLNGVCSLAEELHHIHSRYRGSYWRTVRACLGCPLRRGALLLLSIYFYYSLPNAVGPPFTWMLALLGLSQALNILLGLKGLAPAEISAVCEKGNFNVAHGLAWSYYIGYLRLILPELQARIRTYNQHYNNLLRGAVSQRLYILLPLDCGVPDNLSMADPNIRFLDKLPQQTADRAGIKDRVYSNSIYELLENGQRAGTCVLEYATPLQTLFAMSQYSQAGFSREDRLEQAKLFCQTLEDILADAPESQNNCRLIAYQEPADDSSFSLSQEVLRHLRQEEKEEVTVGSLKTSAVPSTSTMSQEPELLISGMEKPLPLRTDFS
- Assay Procedure: Stimulation of human STING signalling in THP1-Blue ISG SEAP reporter cell line
- Condition Label: THP1-Blue ISG cells, 18-20 hours incubation

- CCn1nc(C)cc1C(=O)Nc1nc2cc(C(N)=O)cc3c2n1C/C=C/Cn1c(NC(=O)c2cc(C)nn2CC)nc2cc(C(N)=O)cc(c21)OCC(n1ccnc1)CO3: 1 to 10 nM
- CCn1nc(C)cc1C(=O)Nc1nc2cc(C(N)=O)cc3c2n1C/C=C/Cn1c(NC(=O)c2cc(C)nn2CC)nc2cc(C(N)=O)cc(c21)OCC(c1ccccn1)CO3: 11 to 100 nM
- CCn1nc(C)cc1C(=O)Nc1nc2cc(C(N)=O)cc3c2n1C/C=C/Cn1c(NC(=O)c2cc(C)nn2CC)nc2cc(C(N)=O)cc(c21)OCC(C1CCN(C)CC1)CO3: 11 to 100 nM
- CCn1nc(C)cc1C(=O)Nc1nc2cc(C(N)=O)cc3c2n1C/C=C/Cn1c(NC(=O)c2cc(C)nn2CC)nc2cc(C(N)=O)cc(c21)OCC(CN1CCOCC1)CO3: 11 to 100 nM

-- ask GET /values?readout=EC50&item= "CCn1nc(C)cc1C(=O)Nc1nc2cc(C(N)=O)cc3c2n1C/C=C/Cn1c(NC(=O)c2cc(C)nn2CC)nc2cc(C(N)=O)cc(c21)OCC(N1CC[C@@H](O)C1)CO3"
-- reply 1 to 10 nM

-- ask GET /values?readout=EC50&item= "CCn1nc(C)cc1C(=O)Nc1nc2cc(C(N)=O)cc3c2n1C/C=C/Cn1c(NC(=O)c2cc(C)nn2CC)nc2cc(C(N)=O)cc(c21)OCC(N1C[C@@H](C)O[C@@H](C)C1)CO3"
-- reply 1 to 10 nM

-- ask GET /values?readout=EC50&item= "CCn1nc(C)cc1C(=O)Nc1nc2cc(C(N)=O)cc3c2n1C/C=C/Cn1c(NC(=O)c2cc(C)nn2CC)nc2cc(C(N)=O)cc(c21)OCC(N1CC[C@H](O)C1)CO3"
-- reply 1 to 10 nM

-- ask GET /values?readout=EC50&item= "CCn1nc(C)cc1C(=O)Nc1nc2cc(C(N)=O)cc3c2n1C/C=C/Cn1c(NC(=O)c2cc(C)nn2CC)nc2cc(C(N)=O)cc(c21)OCC(N1C2CCC1COC2)CO3"
-- reply 1 to 10 nM

-- ask GET /values?readout=EC50&item= "CCn1nc(C)cc1C(=O)Nc1nc2cc(C(N)=O)cc3c2n1C/C=C/Cn1c(NC(=O)c2cc(C)nn2CC)nc2cc(C(N)=O)cc(c21)OCC(N1CC2CCC(C1)O2)CO3"
-- reply 1 to 10 nM

-- ask GET /values?readout=EC50&item= "CCn1nc(C)cc1C(=O)Nc1nc2cc(C(N)=O)cc3c2n1C/C=C/Cn1c(NC(=O)c2cc(C)nn2CC)nc2cc(C(N)=O)cc(c21)O[C@H]1CN[C@@H](CO3)C1"
-- reply 11 to 100 nM

-- ask GET /values?readout=EC50&item= "CCn1nc(C)cc1C(=O)Nc1nc2cc(C(N)=O)cc3c2n1C/C=C/Cn1c(NC(=O)c2cc(C)nn2CC)nc2cc(C(N)=O)cc(c21)OCC(N1CCC(O)CC1)CO3"
-- reply 11 to 100 nM

###

- System Name: Human STING (Homo sapiens, UniProt Q86WV6, G230A/H232R/R293Q/R71H)
- Construct: using human THP1-Blue™ ISG SEAP based reporter cell line (Invivogen)
- Assay Procedure: Stimulation of human STING signalling in THP1-Blue ISG SEAP reporter cell line
- Condition Label: THP1-Blue ISG cells, 18-20 hours incubation
Assay Metric: EC50

Reference set (3 entries):
- CCn1nc(C)cc1C(=O)Nc1nc2cc(C(N)=O)cc3c2n1C/C=C/Cn1c(NC(=O)c2cc(C)nn2CC)nc2cc(C(N)=O)cc(c21)OCC(N1CCC(F)(F)CC1)CO3: 11 to 100 nM
- CCn1nc(C)cc1C(=O)Nc1nc2cc(C(N)=O)cc3c2n1C/C=C/Cn1c(NC(=O)c2cc(C)nn2CC)nc2cc(C(N)=O)cc(c21)OCC(N1CCC(C#N)C1)CO3 (stereo not shown): 1 to 10 nM
- CCn1nc(C)cc1C(=O)Nc1nc2cc(C(N)=O)cc3c2n1C/C=C/Cn1c(NC(=O)c2cc(C)nn2CC)nc2cc(C(N)=O)cc(c21)OCC(N1CC[C@H](OC)C1)CO3: 1 to 10 nM

Now let's try a different one.
-- ask GET /values?readout=EC50&item= "CCn1nc(C)cc1C(=O)Nc1nc2cc(C(N)=O)cc3c2n1C/C=C/Cn1c(NC(=O)c2cc(C)nn2CC)nc2cc(C(N)=O)cc(c21)OCC(N1CCOCC1)CO3"
-- reply 1 to 10 nM
